SYSTEM UNDER TEST: hQC (Homo sapiens)
Sequence (Q16769 29-361): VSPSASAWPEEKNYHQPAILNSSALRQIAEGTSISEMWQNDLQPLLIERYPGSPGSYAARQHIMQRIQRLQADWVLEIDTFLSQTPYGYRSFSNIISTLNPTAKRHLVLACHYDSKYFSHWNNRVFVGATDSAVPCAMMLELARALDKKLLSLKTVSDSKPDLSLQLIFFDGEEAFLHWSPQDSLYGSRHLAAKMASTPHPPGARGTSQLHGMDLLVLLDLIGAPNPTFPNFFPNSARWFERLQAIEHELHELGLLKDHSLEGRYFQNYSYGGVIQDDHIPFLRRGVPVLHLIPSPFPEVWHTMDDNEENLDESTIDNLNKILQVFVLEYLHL
METHOD: Inhibitor assay for glutaminyl cyclase activity (fluorometric, H-Gln-βNA / H-Gln-AMC)
Type: biochemical
CONDITION NOTES: compound from preparative synthesis, purified; read-out: IC50 hQC
pIC50: −log10 of the molar value.
MEASURED METRIC: pIC50

Solved entries:
O=C1C(O)=C(c2ccccc2)C(C2CCC=CO2)N1CCCn1ccnc1 (centres unmarked) [Compound 93]: 5.78
CCCCCC1=C(O)C(=O)N(CCCn2ccnc2)C1c1cccc(Cl)c1 (centres unmarked) [Compound 216]: 6.63
Cc1ccc(C2C(c3ccccc3)=C(O)C(=O)N2CCCn2ccnc2)cc1 (centres unmarked) [Compound 77]: 5.72

[1] CC(=O)C1=C(O)C(=O)N(c2ccc3[nH]cnc3c2)C1c1cccc(F)c1F (centres unmarked) [Compound 350]
[2] Cc1ccc(C2C(c3c[nH]c4ccccc34)=C(O)C(=O)N2CCCn2ccnc2)cc1 (centres unmarked) [Compound 114]
Problem: Identify the item whose pIC50 is the smaller number: 1 or 2 Your answer should be the label of the entry you select.
Result: 2
(2: 6.58, 1: 7.52)
